Examples of binders with documented Kd follow.
Target: T1, EsCas13d, nuclease-dead (Eubacterium siraeum, UniProt B0MS50, R295A;H300A;R849A;H854A)
T1 sequence: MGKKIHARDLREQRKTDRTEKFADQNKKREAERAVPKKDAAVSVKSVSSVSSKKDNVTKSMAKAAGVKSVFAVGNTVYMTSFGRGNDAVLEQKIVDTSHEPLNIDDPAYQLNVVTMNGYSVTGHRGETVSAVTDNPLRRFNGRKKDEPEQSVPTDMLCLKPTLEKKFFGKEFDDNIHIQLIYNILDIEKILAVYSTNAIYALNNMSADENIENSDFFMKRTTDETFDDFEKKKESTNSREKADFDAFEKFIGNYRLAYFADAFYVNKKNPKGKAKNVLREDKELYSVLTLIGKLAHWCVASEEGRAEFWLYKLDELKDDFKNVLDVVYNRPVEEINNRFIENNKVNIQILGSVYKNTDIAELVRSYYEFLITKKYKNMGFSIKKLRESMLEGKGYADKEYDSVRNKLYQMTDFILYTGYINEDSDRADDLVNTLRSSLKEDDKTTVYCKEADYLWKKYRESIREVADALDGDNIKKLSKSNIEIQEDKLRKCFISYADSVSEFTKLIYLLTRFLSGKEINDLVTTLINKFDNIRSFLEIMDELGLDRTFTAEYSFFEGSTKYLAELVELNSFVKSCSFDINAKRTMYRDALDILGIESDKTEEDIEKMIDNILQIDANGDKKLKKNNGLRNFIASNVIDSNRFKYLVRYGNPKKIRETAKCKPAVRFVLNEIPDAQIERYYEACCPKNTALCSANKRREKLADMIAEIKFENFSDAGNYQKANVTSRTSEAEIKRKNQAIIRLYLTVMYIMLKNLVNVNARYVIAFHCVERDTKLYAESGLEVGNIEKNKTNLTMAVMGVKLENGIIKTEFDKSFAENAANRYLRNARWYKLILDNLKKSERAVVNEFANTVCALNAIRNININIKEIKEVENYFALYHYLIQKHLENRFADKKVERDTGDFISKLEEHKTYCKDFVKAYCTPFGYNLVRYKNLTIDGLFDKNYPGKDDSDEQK
Test: crRNA (strand 1, pre-loaded); Mg2+; 40 mM Tris-HCl pH 7.5, 150 mM NaCl, 6 mM MgCl2, 1 mM DTT, 0.1% Tween-20, 0.2 mg/ml BSA; 25 C; 10 min per concentration, then washed
Conditions: tags: His6-TwinStrep-SUMO cleaved; N-terminal SNAP kept (SNAP-Surface 488); label: 3' end held by stalled T7 RNA polymerase
Don't forget the unit after the number, please.

1. target 1 insC 3' of 13,insU 3' of 2 (mixed) RNA 1: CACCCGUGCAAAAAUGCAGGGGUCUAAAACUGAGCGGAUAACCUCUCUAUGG RNA 2: GGGAAUGGAUCCACAUCUACGAAUUCGUACCAUAGAGAGCGUUAUCCGCUCUACCGAGAUCGGAAGAGCACACGU; 14.4 nM

// moving on: another record for Kd
Reported Kd for target 1 A1G,A14G (mixed) RNA 1: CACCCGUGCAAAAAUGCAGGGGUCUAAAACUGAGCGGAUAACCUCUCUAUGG RNA 2: GGGAAUGGAUCCACAUCUACGAAUUCGUACCAUAGAGGGGUUAUCCGCUCGCCGAGAUCGGAAGAGCACACGU was 14.3 nM

The measurements presented in this section are drawn from paper PMC10786891.
